target: Luciferin 4-monooxygenase (Photinus pyralis); assay: qHTS profiling assay for firefly luciferase inhibitor/activator using purifed enzyme and Km concentrations of substrates (counterscreen for miR-21 project); conditions: purified FLuc, luminescence inhibition; series mostly up to 57.5 µM; note: nearly all actives have a fitted effect of over 55% in size
About 25,000 (6.9%) of roughly 360,000 compounds were called active. Roughly 9% stayed inconclusive and do not appear here. Calls come from the whole dose curve; as a rule, active = well fitted inhibition curve with a large enough effect; inconclusive = small, poorly fitted or top-dose-only effect; inactive = flat fitted curve, though single readings scatter. The list comes from a sample in which actives are over-represented; it also holds close analogues and randomly drawn compounds.
Outcome codes: Yes = active, No = inactive

1) Cc1occc(=O)c1OCc1ccc(F)cc1	No
2) CC(C)(C)c1csc(NC2=NS(=O)(=O)c3ccccc32)n1	Yes
3) CC(C)n1ncc2c(C(=O)NCc3ccccc3CN(C)C)cc(C3CC3)nc21	No
4) CC1=C(C(=O)Nc2ccccc2Cl)C(c2cccs2)n2ncnc2N1 (stereo unspecified)	No
5) CCc1ccc(C2CC(=O)c3c([nH]c(C(=O)OCc4ccc(C)cc4)c3C)C2)cc1 (stereo unspecified)	No
6) Cc1ccc(S(=O)(=O)N(NC2=NS(=O)(=O)c3ccccc32)C(=O)c2ccccc2)cc1	No
7) CSCCC(NC(=O)COc1ccccc1)C(=O)N(C)CC(=O)Nc1ccc(C)cc1 (stereo unspecified)	No
8) Cc1cc(S(=O)(=O)N2CCOCC2)ccc1OCC(=O)N1CCOCC1	No
9) Cc1ccccc1NC(=O)CSc1ccc2nnc(-c3ccccn3)n2n1	No
10) Fc1ccc(COc2ccc(-c3nnco3)cc2)cc1	Yes
11) Cc1ccccc1-c1cc(C(=O)NCC2CC2)n(CC2CC(c3cccnc3)=NO2)n1 (stereo unspecified)	No

---

molecular target: Luciferin 4-monooxygenase (Photinus pyralis); assay: qHTS profiling assay for firefly luciferase inhibitor/activator using purifed enzyme and Km concentrations of substrates (counterscreen for miR-21 project); conditions: purified FLuc, luminescence inhibition; series mostly up to 57.5 µM; note: nearly all actives have a fitted effect of over 55% in size
In all, about 360,000 compounds went through this assay and about 25,000 (6.9%) were called active. About 9% were inconclusive and are not listed. Calls follow the shape of the dose curve; as a rule, active = well fitted inhibition curve with a large enough effect; inconclusive = small, poorly fitted or top-dose-only effect; inactive = flat fitted curve, though single readings scatter. For the sample, actives were picked, then their nearest neighbours and some compounds at random.
Outcome codes: Yes (active), No (inactive)

1. COc1ccc(N2CCN(C(=O)/C(C#N)=C/c3ccccc3)CC2)cc1	No
2. CCCCCCOc1ccc(OC(=O)c2cccnc2)cc1	No
3. CCOc1ncccc1C(=O)OCC(=O)N1c2ccccc2CC1C (stereo unspecified)	No
4. CCCCOc1ccc(-c2ncc(C(=O)OCC)c(N)n2)cc1	Yes
5. CCOC(=O)NC(=O)/C(C#N)=C\c1ccccc1	No
6. CCOC(=O)c1cnc(SCC(=O)NCc2ccco2)nc1N	No

---

target: Luciferin 4-monooxygenase (Photinus pyralis); experiment: qHTS profiling assay for firefly luciferase inhibitor/activator using purifed enzyme and Km concentrations of substrates (counterscreen for miR-21 project); conditions: purified FLuc, luminescence inhibition; series mostly up to 57.5 µM; note: nearly all actives have a fitted effect of over 55% in size; note: potency is the fitted concentration of half-maximal effect
In all, about 360,000 compounds went through this assay and about 25,000 (6.9%) were called active. Roughly 9% stayed inconclusive and do not appear here. The sample as a whole holds a higher share of actives than the screen did.
Assay readout: Potency

1) CCCN(CC(=O)NC(=O)NC1CCCCC1)CC(=O)Nc1cc(Cl)ccc1Cl	inactive
2) CCc1cccc(NC(=O)Cn2nc(CC)n3c(cc4cc(C)ccc43)c2=O)c1	inactive
3) COc1ccc(Cn2c(C(=O)O)c(CNCc3cccc(OC)c3)c3ccc(C)cc32)cc1	inactive
4) C=CCN(CC=C)S(=O)(=O)c1ccc(C(=O)Nc2sc3c(c2C(N)=O)CCCCC3)cc1	inactive
5) CCN(CC)CCNC(=O)Cn1ncc2c3ccccc3n(Cc3ccccc3C)c2c1=O	inactive
6) NC(=O)c1c(NC(=O)c2ccccc2)sc2c1CCCC2	675 nM (active)
7) CC(C)(C)C1CCc2c(sc(NC(=O)c3ccccc3F)c2C(=O)N2CCCCC2)C1 (stereo unspecified)	inactive
8) O=C(Nc1nc2c(s1)CCCC2)c1ccccc1F	338 nM (active)
9) O=C(Nc1sc2c(c1C(=O)O)CCC2)c1ccccc1F	26900 nM (active)
10) O=C(Cn1c(=O)sc2ccccc21)Nc1nc2c(s1)CCCC2	inactive
11) Cc1ccc(C(=O)c2c(NC(=O)c3ccncc3)sc3c2CCCC3)cc1	inactive
